test: CCTE_Shafer_MEA_acute_burst_duration_mean: CCTE's Neural Acute Assay for Mean Burst Duration, Shafer Lab (AID 2284014);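 also: hits are decreases in mean burst duration relative to DMSO controls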
Activity calls are given as the source filed them. The calls were made as follows: active = hit-call score of the fitted dose curve at least 0.9, where 1 is the maximum; inactive = score below 0.9.
Outcomes you can answer with include only these: active, inactive

COc1ccc(CO)cc1
inactive
C#CCN(C)[C@H](C)Cc1ccccc1
active

Query compound follows.
Which outcome was assigned to CC1(C)[C@H](C=C(Cl)Cl)[C@@H]1C(=O)O[C@@H](C#N)c1cccc(Oc2ccccc2)c1 in this test?
inactive

---

Molecular target: Norway rat Vesicular Monoamine Transporter (VMAT2), neurotransmitter transporter, Slc18a2 (gene 25549)
Test: NVS_TR_rVMAT2: NovaScreen (NVS) Transporter Assay for Norway rat Vesicular Monoamine Transporter (VMAT2), neurotransmitter transporter (AID 2283376);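 also: actives lower the bound radioligand signal below the DMSO level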
Protocol: NVS_TR_rVMAT2 is a biochemical, single-readout assay that uses extracted gene-proteins from Rat forebrain in a tissue-based cell-free assay. Measurements were taken 1 hour after chemical dosing in a 96-well plate.NVS_TR_rVMAT2 is one of one assay component(s) measured or calculated from the NVS_TR_rVMAT2 assay. […] This assay endpoint, NVS_TR_rVMAT2, was analyzed in the positive analysis fitting direction relative to DMSO as the negative control and baseline of activity. […]
Results filed as inconclusive are left out. Activity calls are given as the source filed them. The calls were made as follows: active = hit-call score of the fitted dose curve at least 0.9, where 1 is the maximum; inconclusive = response in the unintended direction; inactive = score below 0.9.
Use one of these outcomes when replying: YES for active, NO for inactive

For orientation, consider the following solved cases.
CS(=O)(=O)c1ccc([C@@H](CC2CCCC2)C(=O)Nc2cnccn2)cc1Cl
YES
CN(C)c1ccc(C(=C2C=CC(=[N+](C)C)C=C2)c2ccc(N(C)C)cc2)cc1
YES
Cc1ccc(S(=O)(=O)C(I)I)cc1
YES
NNC(=O)c1ccncc1
NO

Status in this test for Cc1ccccc1Cl ?
NO

State the result this test recorded for CCOC(=O)CC(=O)OCC .
NO
